PROTOCOL_NOTES: Peptide stability in simulated intestinal fluid (SIF)
Assay type: in vitro ADME
CONDITION_INFO: pig, simulated intestinal fluid (SIF) with porcine pancreatin; 4 h, 37 °C, pH 6.8, porcine pancreatin 10 g/L, 10 µM; read-out: SIF (% remaining 4 h)
*1 amine or outer side, *2 acyl side, *3 side chain or, on linkers, in order; H or OH if unused. Where a SMILES comes first, the peptide text is derived from it. Bridges are numbered along the chain shown (N, C = ends). [ ]: non-standard residue; d: D form. 2Nal = N[C@@H](Cc1ccc2ccccc2c1)C(=O)O; AEF = NCCOc1ccc(C[C@H](N)C(=O)O)cc1; X1 = O=C(Cc1ccc(CN[*:1])cc1)[*:2]; 3Pal = N[C@@H](Cc1cccnc1)C(=O)O; αMeL = CC(C)C[C@](C)(N)C(=O)O; Dab = NCC[C@H](N)C(=O)O
EXPERIMENTAL_READOUT: remaining at 4 h, 10 µM (%)
Just the number please, in %, no unit attached.

CNC(=O)[C@H](Cc1cccnc1)NC(=O)[C@H](CO)NC(=O)[C@@H]1CCC(=O)NCc2ccc(cc2)CC(=O)N[C@@H](CO)C(=O)N[C@H]2CCC(=O)NCC[C@H](NC(=O)[C@H](CCC(N)=O)NC(=O)[C@H](Cc3c[nH]c4ccccc34)NC2=O)C(=O)N[C@@H](Cc2ccc(OCCN)cc2)C(=O)N[C@@H](Cc2ccc3ccccc3c2)C(=O)N[C@@](C)(CC(C)C)C(=O)N1 [Compound 31] ([X1]SEWQ[Dab][AEF][2Nal][αMeL]ES[3Pal]-NHMe; lactam 3-6, N-10) | 41

Next:
For CNC(=O)[C@H](Cc1cccnc1)NC(=O)[C@H](CCN)NC(=O)[C@@H]1CCC(=O)NCc2ccc(cc2)CC(=O)N[C@@H](CO)C(=O)N[C@H]2CCC(=O)NCC[C@H](NC(=O)[C@H](CCC(=O)N(C)C)NC(=O)[C@H](Cc3c[nH]c4ccccc34)NC2=O)C(=O)N[C@@H](Cc2ccc(OCCN)cc2)C(=O)N[C@@H](Cc2ccc3ccccc3c2)C(=O)N[C@@](C)(CC(C)C)C(=O)N1 [Compound 30] ([X1]SEWE(NMe2)[Dab][AEF][2Nal][αMeL]E[Dab][3Pal]-NHMe; lactam 3-6, N-10) the compound record lists remaining at 4 h, 10 µM as 94
